Tested Target: T1, TCR gamma/delta constant region (TRGDC) (human, UniProt P0CF51 1-173; B7Z8K6 1-153)
T1 chain (looked up) 1: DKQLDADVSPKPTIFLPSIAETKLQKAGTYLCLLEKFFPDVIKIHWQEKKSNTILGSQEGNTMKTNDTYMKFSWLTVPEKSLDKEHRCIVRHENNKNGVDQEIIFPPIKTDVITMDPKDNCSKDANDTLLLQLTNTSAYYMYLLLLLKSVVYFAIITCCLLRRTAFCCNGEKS
T1 chain (looked up) 2: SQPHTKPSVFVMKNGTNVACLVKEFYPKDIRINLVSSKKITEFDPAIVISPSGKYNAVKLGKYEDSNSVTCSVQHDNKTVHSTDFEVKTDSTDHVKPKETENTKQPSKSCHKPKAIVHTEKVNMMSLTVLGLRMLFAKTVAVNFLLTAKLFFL
Experimental Protocol: cell-based or functional assay
Collected Vg9 T cell %, flow staining values appear next to each entry.
Readout Name: Vg9 T cell %, flow staining

VG9B125 (antibody, human IgG1, kappa, V domains shown) VH: EVQLVESGGTLVQPGGSLRLSCAVSGFTFSSYDMNWVRQAPGKGLEWVSYISSSSTAKYYADSVKGRFTISRDNAKNSLYLQMNSLWDEDTAVYYCAREDIVVVTPILQHWGQGTTVTVSS VL: EIVMTQSPATLSLSPGERAILSCRASQSVSKDLAWYQQKPGQAPRLLIYDASNRATGIPARISGSGSGTDFTLTISSLEPEDFAVYYCQQRINWPLFTFGPGTKVEIKR : 12.4%
VG9B136 (antibody, human IgG1, kappa, V domains shown) VH: QVQLQQSGPGLVKPSQTLSLTCAISGDSVSSNRAAWNWIRQSPSKGLEWLGRTYYRSKWYNEYAASVKSRMSINPDTSKNQFSLQLNSVTPEDTALYYCARDLWELREACDIWGQGTMVTVSS VL: DIVMTQSPSFLSTFVGDRVTITCRASQGISSYLAWYQQKPGKVPKLLIYVASTLQSGVPSRFSGSGSGTEFTLTISSLQPEDFATYYCQQLNSYPFTFGPGTKVDIKR : 5.7%
VG9B386 (antibody, human IgG1, kappa, V domains shown) VH: EVQLVESGGGLVKPGGSLRLSCAASGFTFSSYSMIWVRQAPGKGLEWVSSIGSSSTYIYYADSVRGRFTISRDNAKTSLYLQMNSLRAEDTAMYFCARDGETGGFDYWGQGILVTVSS VL: EIVMTQSPGTLSLSPGERATLSCRASQSISRSYLAWYQQKPGQPPRLLIYGPSNRATGIPDRFSASGSGTDFTLTNSRLEPEDFAVYYCQQYGSLPLTFGGGTKVEIKR : 8.5%
VG9B112 (antibody, human IgG1, kappa, V domains shown) VH: QVQLQQSGPGLVKPSQTLSLTCAISGDSVSSNSAAWNWIRQSPSRGLEWLGGTYYRSKWFNNYAVSVKSRITINPDTSTNQFSLQLNSVTPADTAVYYCARGEWGLRDAFDIWGQGTMVTVSS VL: DIQMTQSPSFLSASVGDRVIITCRASQGIHSYLAWYQQKPGKVPKLLIYVASTLQSGVPSRFSGSGSGTEFTLTISSLQPEDFATYYCQQLNSYPWTFGQGTKLEIKR : 7.9%
VG9B369 (antibody, human IgG1, kappa, V domains shown) VH: EVQLLESGPTLVKPTQTLTLTCTFSGFSLSTIGVGVGWIRQPPGKALEWLSLIYWNDDKRYNPSLKSRLTITKDTSKNQVVLTMTNMDPVDTATYYCAHSHDWVHAFDIWGQGTMVTVSS VL: DIVMTQSPSSLSASVGDRVTITCQASQDISHYLNWYQQKPGKAPKFLIYDASNLDTGVPSRFSGSGSGTDFTFTISSLQPEDIATYYCQQYDNFPLTFGGGTKVEIKR : 6.1%
VG9B387 (antibody, human IgG1, lambda, V domains shown) VH: EVQLVESGAEVKKPGASVKVSCKASGFTFTGYYLQWVRQAPGQGLEWMGWINPNSGYTDYAQRFQDRVTMTRDTSINTAYMELSRLRSDDTAVYYCARLDDAFDVWGQGTMVTVSS VL: SYELTQDPAVSVALGQTVRITCQGDSLRNYYAIWYQQKPGQAPVLVIFGKNNRPSGIPDRFSGSSSGTTASLTITGTQAEDEADYYCNSRDSSGNHWVFGGGTKLTVLG : 5.5%
VG9B144 (antibody, human IgG1, lambda, V domains shown) VH: QVQLVQSGAEVKKPGASVKVSCKASGYTFTGYYMHWMRQAPGQGLEWMGWINPNSGATNKEQKFQGRVTMTRDTSISTAYMELSRLRSDDTAVYYCAREDDAFDVWGQGTMVTVSS VL: SSELTQDPAVSVALGQTVRITCQGDNLRNYYATWFQQKPGQAPVLVFFGKNNRPSGIPDRFSGSSSGDTASLTITGAQAEDEADYYCNSRDSSGNHVVFGGGTKLTVLG : 3.8%
